# measurement_target: Proteasome subunit beta (Trypanosoma cruzi) (UniProt O96673)
# Sequence (O96673 as listed by the source): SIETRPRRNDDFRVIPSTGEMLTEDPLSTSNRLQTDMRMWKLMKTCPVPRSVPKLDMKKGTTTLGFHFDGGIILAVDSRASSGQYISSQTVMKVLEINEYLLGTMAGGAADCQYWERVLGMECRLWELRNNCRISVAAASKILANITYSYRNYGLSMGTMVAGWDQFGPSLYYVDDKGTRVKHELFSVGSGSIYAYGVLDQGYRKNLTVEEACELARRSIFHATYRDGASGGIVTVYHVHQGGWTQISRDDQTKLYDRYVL
# method_notes: Trypanosoma cruzi proteasome chymotrypsin-like activity (TcProtChymo) assay.
# Format: functional
# Parameters: scale not given: in the data most compounds retested in dose-response had high values
# condition_info: 9.37 µM
Percent Effect overview

molecule: O=C(c1ccccn1)N1C[C@@H]2CC[C@H](C1)N(C(=O)CCc1ccsc1)C2
display_unit: %
Percent Effect: 13.3
--
molecule: COc1c(CNC2CCOc3ccccc32)c(C(C)C)nn1C (centres undefined)
display_unit: %
Percent Effect: 3.95
--
molecule: COCCN1CC[C@@H](O)[C@@H]1Cc1ccccc1
display_unit: %
Percent Effect: 10.7
--
molecule: Cc1cc(C)n(C2CN(CC(=O)N3CCOCC3)C2)n1
display_unit: %
Percent Effect: 11.2
